Assay: Oral bioavailability in Sprague-Dawley rat at 3 mg/kg using crystalline form of sample
Format: ADME, organism-based
Conditions: in vivo
Property name: bioavailability (%)

| Compound structure | U | Measured number |
| --- | --- | --- |
| Cn1cc(-c2cn3nccc3c(-c3cnn([C@]4(CC#N)C[C@@H](C#N)C4)c3)n2)cn1 | % | 15 |

---

Molecular target: Tyrosine-protein kinase JAK3 (Homo sapiens)
Sequence (P52333 whole entry): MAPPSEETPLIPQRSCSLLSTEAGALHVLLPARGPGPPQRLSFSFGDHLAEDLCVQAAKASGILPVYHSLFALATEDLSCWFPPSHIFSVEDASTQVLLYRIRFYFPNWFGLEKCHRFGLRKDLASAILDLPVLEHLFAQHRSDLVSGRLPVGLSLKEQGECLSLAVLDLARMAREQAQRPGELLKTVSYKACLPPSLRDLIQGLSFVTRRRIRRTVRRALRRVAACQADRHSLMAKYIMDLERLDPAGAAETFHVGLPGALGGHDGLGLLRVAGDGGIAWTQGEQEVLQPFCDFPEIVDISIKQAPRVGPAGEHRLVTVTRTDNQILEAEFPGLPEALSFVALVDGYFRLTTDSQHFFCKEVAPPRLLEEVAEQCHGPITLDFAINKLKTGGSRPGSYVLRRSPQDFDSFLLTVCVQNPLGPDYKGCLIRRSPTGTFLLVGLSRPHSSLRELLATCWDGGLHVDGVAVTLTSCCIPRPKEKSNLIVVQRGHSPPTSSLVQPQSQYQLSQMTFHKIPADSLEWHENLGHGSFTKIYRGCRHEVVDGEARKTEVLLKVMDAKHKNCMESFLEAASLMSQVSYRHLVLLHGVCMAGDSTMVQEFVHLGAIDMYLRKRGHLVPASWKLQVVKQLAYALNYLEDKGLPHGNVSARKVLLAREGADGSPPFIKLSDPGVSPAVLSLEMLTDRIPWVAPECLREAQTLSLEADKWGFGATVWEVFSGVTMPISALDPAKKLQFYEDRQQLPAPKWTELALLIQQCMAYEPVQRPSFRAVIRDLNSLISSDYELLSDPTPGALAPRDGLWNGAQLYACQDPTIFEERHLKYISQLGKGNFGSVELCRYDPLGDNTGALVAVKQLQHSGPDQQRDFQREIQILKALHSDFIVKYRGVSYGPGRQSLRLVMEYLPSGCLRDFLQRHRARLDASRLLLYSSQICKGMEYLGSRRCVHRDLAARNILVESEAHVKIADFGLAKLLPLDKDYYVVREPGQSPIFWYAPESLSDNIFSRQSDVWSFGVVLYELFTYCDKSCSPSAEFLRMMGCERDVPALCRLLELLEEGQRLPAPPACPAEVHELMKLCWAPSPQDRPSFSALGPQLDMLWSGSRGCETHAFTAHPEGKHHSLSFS
Assay: Inhibition of recombinant human GST-tagged JAK3 catalytic domain (781 to 1124 residues) expressed in baculovirus expression system using FITC-KGGEEEEYFELVKK as substrate in presence of ATP at Km by microfluidic assay
pIC50: −log10 of the molar value.
Measured pIC50, listed per entry.

| Compound structure | pIC50 |
| --- | --- |
| Cn1cc(-c2cn3nccc3c(-c3cnn(C4(CC#N)CN(CC(F)(F)F)C4)c3)n2)cn1 | < 5.01 |
| Cn1ccc(-c2cn3nccc3c(-c3cnn([C@]4(CC#N)C[C@H](C#N)C4)c3)n2)n1 | < 5.02 |
| Cn1cc(-c2cn3nccc3c(-c3cnn(C4(CC#N)CN(CC5CC5)C4)c3)n2)cn1 | < 5.00 |
